Values from PubChem BioAssay AID179

Tested on: CEM cells HIV-1 protection, formazan growth assay
Assay: NCI AIDS Antiviral Assay;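 active means compounds giving half or more protection of infected cells from virus-caused growth loss, again on retest; inactive means the rest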
# valid calls are class 1 (active), class 0 (inactive); nothing else

compound: Nc1ncnc2c1ncn2[C@H]1C(CO)[C@@H](CO)C12SCCCS2 (some centres not stated)
measurement-target: CEM cells HIV-1 protection, formazan growth assay
class-assignment: class 0
//
compound: C=C1CC[C@@H](Br)C(C)(C)[C@]12CCC(C)(O)C(Cl)C2 (some centres not stated)
measurement-target: CEM cells HIV-1 protection, formazan growth assay
class-assignment: class 0
//
compound: CO/N=C(\C)CCC#Cc1ccccc1C(=O)OC
measurement-target: CEM cells HIV-1 protection, formazan growth assay
class-assignment: class 0
//
compound: CC1=NN2C(=O)C(c3ccccc3)SC2=NC(C)(C)C1 (configuration not stated)
measurement-target: CEM cells HIV-1 protection, formazan growth assay
class-assignment: class 0
//
compound: CCCCCC=C(c1cc(Cl)c(OC)c(C(N)=O)c1)c1cc(Cl)c(OC)c(C(N)=O)c1
measurement-target: CEM cells HIV-1 protection, formazan growth assay
class-assignment: class 1

Now consider a different compound.
Status in this test for Cc1cc(S(=O)(=O)NC2=NCC(C)NN2)c(S)cc1Cl (configuration not stated) ?
class 0
